meta.source: the supplement of paper PMC3545927

Target: furin, P09958;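 also: purified furin at 1:10 enzyme:substrate in 50 mM HEPES pH 7.5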
Sequence (P09958 whole entry): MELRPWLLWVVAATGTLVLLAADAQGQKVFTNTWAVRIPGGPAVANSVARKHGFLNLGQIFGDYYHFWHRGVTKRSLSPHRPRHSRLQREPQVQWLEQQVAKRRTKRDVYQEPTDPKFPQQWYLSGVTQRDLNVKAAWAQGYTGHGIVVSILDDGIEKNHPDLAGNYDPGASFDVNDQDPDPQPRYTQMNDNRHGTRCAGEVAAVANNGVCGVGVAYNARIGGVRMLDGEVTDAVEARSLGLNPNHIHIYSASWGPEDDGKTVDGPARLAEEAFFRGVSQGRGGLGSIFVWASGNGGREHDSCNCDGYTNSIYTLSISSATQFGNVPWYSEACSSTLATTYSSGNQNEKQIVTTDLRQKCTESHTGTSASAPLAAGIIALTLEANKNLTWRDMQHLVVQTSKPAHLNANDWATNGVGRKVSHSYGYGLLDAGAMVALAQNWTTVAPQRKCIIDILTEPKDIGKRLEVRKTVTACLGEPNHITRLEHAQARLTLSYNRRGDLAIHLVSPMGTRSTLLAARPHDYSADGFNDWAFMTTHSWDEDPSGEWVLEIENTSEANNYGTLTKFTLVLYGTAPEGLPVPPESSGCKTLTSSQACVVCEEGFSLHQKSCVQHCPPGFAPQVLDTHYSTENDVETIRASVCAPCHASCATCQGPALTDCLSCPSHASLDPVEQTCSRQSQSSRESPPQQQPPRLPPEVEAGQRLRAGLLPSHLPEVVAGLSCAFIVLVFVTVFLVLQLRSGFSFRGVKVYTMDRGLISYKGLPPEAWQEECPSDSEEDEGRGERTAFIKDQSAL
Assay: furin cleavage Z-score vs untreated control; higher = more cleavage, active = 3.5 or more, inactive = 1 or less, 8 variable residues between constant flanks
Settings: 7.5 min
The other results are listed elsewhere or left out. No count for the full screen is at hand.
Let's look at some sequences and their measured furin cleavage Z-score.

{"columns": ["seq", "furin cleavage Z-score"],
 "data": [
  ["CARVGRSLPTAGNASASA [FS-2098]", 8.92],
  ["CARKGRVVIDAGNASASA [FS-2263]", -1.41],
  ["CARVCRSDNTAGNASASA [FS-2194]", 2.3],
  ["CARVGRSSKQAGNASASA [FS-2838]", 0.0354],
  ["CAFNSSGCPEAGNASASA [HC384]", -0.864],
  ["CALVGLMALTAGNASASA [HC572]", -0.292],
  ["CATPRRQKRLAGNASASA [FS-881]", 9.61]
]}
